Catalogue of Kd readings, one per entry.
- TARGET_SYSTEM: UniProt P21802
- Sequence (P21802 22-821): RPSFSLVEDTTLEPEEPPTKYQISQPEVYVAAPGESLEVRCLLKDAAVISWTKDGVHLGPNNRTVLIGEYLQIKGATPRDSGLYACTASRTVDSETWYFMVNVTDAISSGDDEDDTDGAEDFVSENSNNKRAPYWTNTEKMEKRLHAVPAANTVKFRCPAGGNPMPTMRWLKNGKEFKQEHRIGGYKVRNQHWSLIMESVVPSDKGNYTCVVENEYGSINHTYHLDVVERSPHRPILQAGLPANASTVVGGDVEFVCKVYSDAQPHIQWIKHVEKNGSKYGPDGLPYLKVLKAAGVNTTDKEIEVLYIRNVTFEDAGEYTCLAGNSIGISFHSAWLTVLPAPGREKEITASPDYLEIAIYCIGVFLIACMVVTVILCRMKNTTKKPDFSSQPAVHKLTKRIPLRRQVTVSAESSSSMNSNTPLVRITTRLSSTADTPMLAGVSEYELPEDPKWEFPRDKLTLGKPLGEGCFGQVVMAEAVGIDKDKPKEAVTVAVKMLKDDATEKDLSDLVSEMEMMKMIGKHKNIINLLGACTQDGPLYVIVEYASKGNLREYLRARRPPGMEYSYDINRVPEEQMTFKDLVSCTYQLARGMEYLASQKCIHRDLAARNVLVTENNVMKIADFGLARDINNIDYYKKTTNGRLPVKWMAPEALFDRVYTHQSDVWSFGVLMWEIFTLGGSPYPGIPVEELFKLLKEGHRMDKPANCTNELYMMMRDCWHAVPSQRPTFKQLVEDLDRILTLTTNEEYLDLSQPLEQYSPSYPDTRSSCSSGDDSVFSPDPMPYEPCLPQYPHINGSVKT
- TEST_PROTOCOL: Kinase assay, binding constants (Kd), kinase-tagged T7 phage, qPCR

Sample records with Kd:
[[record]]
structure_smiles_string = "Cc1ncc(Cl)c([C@@H](C)Oc2ccc3[nH]nc(-c4cnc(N5CC6(CNC6)C5)nc4)c3c2)c1Cl"
result = "20 to 100 nM"

[[record]]
structure_smiles_string = "C[C@@H](Oc1ccc2[nH]nc(-c3cnc(N4CCC5(CC4)CNC(=O)N5)nc3)c2c1)c1c(Cl)cncc1Cl"
result = "20 to 100 nM"

[[record]]
structure_smiles_string = "COc1c(O[C@H](C)c2c(C)cnnc2C)ccc2[nH]nc(-c3ccc(N4CC5(C4)CN(S(C)(=O)=O)C5)nc3)c12"
result = "> 300 nM"


response.value for `C[C@@H](Oc1ccc2[nH]nc(-c3ccc(N4CCN(C(=O)N5CCN(C)CC5)CC4)nc3)c2c1)c1c(Cl)cncc1Cl` (field: Kd) = 1 to 20 nM

response.value for `COc1cc(-c2n[nH]c3ccc(O[C@H](C)c4c(Cl)cncc4Cl)cc23)cnc1N1CC2(C1)CN(S(C)(=O)=O)C2` (field: Kd) = > 300 nM

response.value for `CNC1(C)CN(c2ncc(-c3n[nH]c4cc(Cl)c(O[C@H](C)c5c(Cl)cnc(C)c5Cl)cc34)cc2F)C1` (field: Kd) = 20 to 100 nM

response.value for `C[C@@H](Oc1ccc2[nH]nc(-c3cnc(N4CC(C#N)C4)c(C#N)c3)c2c1)c1c(Cl)cncc1Cl` (field: Kd) = > 300 nM

###

Catalogue of Kd readings, one per entry.
- TARGET_SYSTEM: UniProt P11362
- Sequence (P11362 22-822): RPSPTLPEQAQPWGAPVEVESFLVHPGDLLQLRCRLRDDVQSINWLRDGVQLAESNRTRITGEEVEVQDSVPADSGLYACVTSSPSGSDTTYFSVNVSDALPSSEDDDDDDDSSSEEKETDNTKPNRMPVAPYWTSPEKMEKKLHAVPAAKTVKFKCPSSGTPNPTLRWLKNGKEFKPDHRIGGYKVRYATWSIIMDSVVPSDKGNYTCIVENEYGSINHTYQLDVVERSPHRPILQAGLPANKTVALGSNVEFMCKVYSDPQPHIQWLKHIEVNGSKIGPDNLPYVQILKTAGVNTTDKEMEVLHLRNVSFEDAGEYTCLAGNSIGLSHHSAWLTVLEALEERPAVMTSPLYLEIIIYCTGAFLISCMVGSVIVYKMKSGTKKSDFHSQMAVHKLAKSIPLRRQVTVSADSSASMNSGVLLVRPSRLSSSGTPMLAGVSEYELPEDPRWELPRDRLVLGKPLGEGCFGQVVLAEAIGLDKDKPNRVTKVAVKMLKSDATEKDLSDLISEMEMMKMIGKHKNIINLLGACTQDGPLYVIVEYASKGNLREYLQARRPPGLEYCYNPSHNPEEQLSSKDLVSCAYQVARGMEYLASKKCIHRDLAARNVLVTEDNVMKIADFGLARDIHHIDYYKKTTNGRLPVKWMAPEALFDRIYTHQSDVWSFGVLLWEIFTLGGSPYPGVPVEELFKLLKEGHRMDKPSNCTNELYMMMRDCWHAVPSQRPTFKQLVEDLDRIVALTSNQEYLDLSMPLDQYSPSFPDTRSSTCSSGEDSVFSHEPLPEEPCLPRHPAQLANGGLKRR
- TEST_PROTOCOL: Kinase assay, binding constants (Kd), kinase-tagged T7 phage, qPCR
- Method: Kinase-tagged T7 phage strains were prepared in an E. coli host derived from the BL21 strain. E. coli were grown to log-phase and infected with T7 phage and incubated with shaking at 32° C. until lysis. The lysates were centrifuged and filtered to remove cell debris. […] Test compounds were prepared as 111λ stocks in 10000 DMS0. Kds were determined using an 11-point 3-fold compound dilution series with three DMSO control points. […] The kinase concentration in the eluates was measured by qPCR. […]

Sample records with Kd:
[[record]]
compound = "COc1cc2[nH]nc(-c3cnc(N4CC[C@H]4C)c(S(C)(=O)=O)c3)c2cc1O[C@H](C)c1c(Cl)cncc1Cl [Example 372]"
measured_attribute = "Kd"
result = "100 to 300 nM"

[[record]]
compound = "Cc1cc2[nH]nc(-c3cnc(N4CC5(C4)CN(S(C)(=O)=O)C5)c(F)c3)c2cc1O[C@@H](C)c1c(Cl)cnnc1Cl [Example 254]"
measured_attribute = "Kd"
result = "> 300 nM"


Observed Kd, UniProt P11362, Cc1ncc(Cl)c([C@@H](C)Oc2ccc3[nH]nc(-c4cnn(C5CCNCC5)c4)c3c2)c1Cl [Example 92] : 1 to 20 nM

Observed Kd, UniProt P11362, C[C@@H](Oc1ccc2[nH]nc(-c3ccc(N4CCC5(CC4)C(=O)NCCN5C)nc3)c2c1)c1c(Cl)cncc1Cl [Example 34] : 1 to 20 nM

###

- Tested on: KG-1 cells (FGFR1-fusion)
- TEST_PROTOCOL: KG-1 cancer cell line cell viability assay (CellTiter-Glo 2.0)
- Format: cell-based
- ASSAY_SETUP: Homo sapiens, 72 hours, Cell Titer Glo 2.0
MEASURED_ATTRIBUTE: IC50

Sample records with IC50:
[[record]]
structure_smiles_string = "C[C@@H](Oc1ccc2[nH]nc(-c3ccc(N4CCC5(CCOC5)CC4)nc3)c2c1)c1c(Cl)cncc1Cl"
target_system = "KG-1 cells (FGFR1-fusion)"
measured_attribute = "IC50"
result = "100 to 300 nM"

[[record]]
structure_smiles_string = "C[C@@H](Oc1ccc2[nH]nc(-c3ccc(N4CC5(CCN(S(C)(=O)=O)C5)C4)nc3)c2c1)c1c(Cl)cncc1Cl"
target_system = "KG-1 cells (FGFR1-fusion)"
measured_attribute = "IC50"
result = "100 to 300 nM"

[[record]]
structure_smiles_string = "C[C@@H](Oc1ccc2[nH]nc(-c3cnc(N4CCC5(CC4)CC(=O)NC5=O)nc3)c2c1)c1c(Cl)cncc1Cl"
target_system = "KG-1 cells (FGFR1-fusion)"
measured_attribute = "IC50"
result = "100 to 300 nM"

[[record]]
structure_smiles_string = "C[C@@H](Oc1ccc2[nH]nc(-c3ccc(N4CCC5(CCCO5)CC4)nc3)c2c1)c1c(Cl)cncc1Cl"
target_system = "KG-1 cells (FGFR1-fusion)"
measured_attribute = "IC50"
result = "> 300 nM"

[[record]]
structure_smiles_string = "C[C@@H](Oc1ccc2[nH]nc(-c3cnc(N4CCN(C(=O)N(C)C)CC4)nc3)c2c1)c1c(Cl)cncc1Cl"
target_system = "KG-1 cells (FGFR1-fusion)"
measured_attribute = "IC50"
result = "100 to 300 nM"


response.value for `CCOC(=O)N1CC2(C1)CN(c1ccc(-c3n[nH]c4ccc(O[C@H](C)c5c(Cl)cncc5Cl)cc34)cn1)C2` (field: IC50) = 100 to 300 nM

response.value for `C[C@@H](Oc1ccc2[nH]nc(-c3ccc(N4CCN(S(C)(=O)=O)C5(CC5)C4)nc3)c2c1)c1c(Cl)cncc1Cl` (field: IC50) = 20 to 100 nM

###

Catalogue of Kd readings, one per entry.
- TARGET_SYSTEM: UniProtKB P21802
- TEST_PROTOCOL: Kinase assay, binding constants (Kd), kinase-tagged T7 phage, qPCR

Sample records with Kd:
[[record]]
compound = "C[C@@H](Oc1ccc2[nH]nc(-c3cnc(N4CCCC4)c(C#N)c3)c2c1)c1c(Cl)cncc1Cl [Example 285]"
target_system = "UniProtKB P21802"
measured_attribute = "Kd"
result = "> 300 nM"

[[record]]
compound = "C[C@@H](Oc1ccc2[nH]nc(-c3cnc(N4CC5(CCS(=O)(=O)C5)C4)c(C#N)c3)c2c1)c1c(Cl)cncc1Cl [Example 343]"
target_system = "UniProtKB P21802"
measured_attribute = "Kd"
result = "20 to 100 nM"

[[record]]
compound = "C[C@@H](Oc1ccc2[nH]nc(-c3ccc(C4CCN(S(C)(=O)=O)CC4)nc3)c2c1)c1c(Cl)cncc1Cl [Example 70]"
target_system = "UniProtKB P21802"
measured_attribute = "Kd"
result = "1 to 20 nM"

[[record]]
compound = "C[C@@H](Oc1ccc2[nH]nc(-c3ccc(N4CC5(CNC5)C4)nc3)c2c1)c1c(Cl)cncc1Cl [Example 45]"
target_system = "UniProtKB P21802"
measured_attribute = "Kd"
result = "1 to 20 nM"


response.value for C[C@@H](Oc1ccc2[nH]nc(-c3ccc(N4CC5(C4)CS(=O)(=O)C5)nc3)c2c1)c1c(Cl)cncc1Cl [Example 112] (field: Kd) = 20 to 100 nM

response.value for Cc1cc2[nH]nc(-c3cnc(N4CC5(C4)CN(S(C)(=O)=O)C5)c(F)c3)c2cc1O[C@@H](C)c1c(Cl)cnnc1Cl [Example 254] (field: Kd) = 100 to 300 nM

response.value for C[C@@H](Oc1cc2c(-c3cnc(N4CCC4)c(CN(C)C)c3)n[nH]c2cc1Cl)c1c(Cl)cncc1Cl [Example 366] (field: Kd) = > 300 nM

###

- TARGET_SYSTEM: FGFR4 (Homo sapiens (Human), UniProt P22455)
- Sequence (P22455 22-802): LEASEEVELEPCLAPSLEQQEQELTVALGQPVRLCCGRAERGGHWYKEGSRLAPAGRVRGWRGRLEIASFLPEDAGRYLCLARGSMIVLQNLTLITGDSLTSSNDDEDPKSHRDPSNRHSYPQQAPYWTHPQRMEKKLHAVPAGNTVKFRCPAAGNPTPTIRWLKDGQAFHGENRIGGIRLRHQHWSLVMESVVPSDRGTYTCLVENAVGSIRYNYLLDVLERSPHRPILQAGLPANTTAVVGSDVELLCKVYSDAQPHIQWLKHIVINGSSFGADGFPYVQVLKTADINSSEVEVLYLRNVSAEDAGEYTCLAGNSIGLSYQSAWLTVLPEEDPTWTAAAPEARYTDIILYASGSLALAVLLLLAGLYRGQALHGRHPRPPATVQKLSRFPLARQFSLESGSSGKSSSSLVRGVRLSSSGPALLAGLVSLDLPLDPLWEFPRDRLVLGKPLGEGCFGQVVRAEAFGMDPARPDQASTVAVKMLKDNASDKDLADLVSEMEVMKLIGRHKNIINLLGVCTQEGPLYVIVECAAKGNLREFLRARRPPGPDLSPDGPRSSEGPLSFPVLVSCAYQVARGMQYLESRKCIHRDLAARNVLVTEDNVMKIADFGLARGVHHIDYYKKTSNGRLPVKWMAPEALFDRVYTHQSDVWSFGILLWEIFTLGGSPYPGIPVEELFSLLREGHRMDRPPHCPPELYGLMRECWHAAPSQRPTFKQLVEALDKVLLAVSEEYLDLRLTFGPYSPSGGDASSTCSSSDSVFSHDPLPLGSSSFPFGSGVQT
- TEST_PROTOCOL: Kinase assay, binding constants (Kd), kinase-tagged T7 phage, qPCR
Catalogue of Kd readings, one per entry.

Sample records with Kd:
[[record]]
structure_smiles_string = "C[C@@H](Oc1ccc2[nH]nc(-c3cnc(N4CC5(CCS(=O)(=O)C5)C4)nc3)c2c1)c1c(Cl)cncc1Cl"
result = "1 to 20 nM"

[[record]]
structure_smiles_string = "C[C@@H](Oc1ccc2[nH]nc(-c3cnn(C4CCN(C(N)=O)CC4)c3)c2c1)c1c(Cl)cncc1Cl"
result = "1 to 20 nM"

[[record]]
structure_smiles_string = "COC(=O)N1CC2(C1)CN(c1ccc(-c3n[nH]c4ccc(O[C@H](C)c5c(Cl)cncc5Cl)cc34)cn1)C2"
result = "1 to 20 nM"

[[record]]
structure_smiles_string = "C[C@@H](Oc1ccc2[nH]nc(-c3cnn(C4CNC4)c3)c2c1)c1c(Cl)cncc1Cl"
result = "1 to 20 nM"

[[record]]
structure_smiles_string = "C[C@@H](Oc1ccc2[nH]nc(-c3cnc(N4CCC5(CCCN5)CC4)nc3)c2c1)c1c(Cl)cncc1Cl"
result = "1 to 20 nM"

[[record]]
structure_smiles_string = "COc1cc(-c2n[nH]c3ccc(O[C@H](C)c4c(C)cnnc4C)cc23)cnc1N1CC2CC(C1)N2"
result = "20 to 100 nM"


response.value for `Cc1cnnc(C)c1[C@@H](C)Oc1ccc2[nH]nc(-c3cnc(N4CCC[C@@H]4CO)c(C#N)c3)c2c1` (field: Kd) = 1 to 20 nM

response.value for `C[C@@H](Oc1ccc2[nH]nc(-c3cnc(N4CC5(C4)CN(S(C)(=O)=O)C5)c(C#N)c3)c2c1)c1c(Cl)cncc1Cl` (field: Kd) = 1 to 20 nM

response.value for `COc1cc2[nH]nc(-c3ccc(N4CC5(C4)CN(S(C)(=O)=O)C5)nc3)c2cc1O[C@H](C)c1c(Cl)cnc(C)c1Cl` (field: Kd) = 1 to 20 nM

response.value for `Cc1ncc(Cl)c([C@@H](C)Oc2ccc3[nH]nc(-c4cnn(C5CCN(C)CC5)c4)c3c2)c1Cl` (field: Kd) = 100 to 300 nM
